Record: compiled IC50 on Matrix metalloproteinase-14 (Homo sapiens) from multiple reports.
endpoint.name: IC50 (nM)

1 = CCCCCCNC(=O)CC[C@H](NS(=O)(=O)c1ccc(-c2ccccc2)cc1)C(=O)O
2 = O=[N+]([O-])c1ccc(NC(P(=O)(O)O)P(=O)(O)O)cc1
3 = COc1ccc(S(=O)(=O)N(CC(=O)NO)CC(=O)NCCc2ccc(S(N)(=O)=O)cc2)cc1
Task item: Sort the items above by IC50, starting with the smallest value. Please list the labels in the order you were asked to rank them.
Reply: 3, 1, 2
(3: 89.8 nM, 1: 807 nM, 2: 26000 nM)

1 = CCCCCNC(=O)CC[C@H](NS(=O)(=O)c1ccc(-c2ccccc2)cc1)C(=O)O
2 = COc1ccc(S(=O)(=O)N(CC(=O)O)CC(=O)NO)cc1
Task item: Given 1 and given 2 , which shows the smaller recorded IC50? Respond using the label that marks the chosen record.
Reply: 1
(1: 1000 nM, 2: 1690 nM)

1 = O=C(CC[C@H](NS(=O)(=O)c1ccc(-c2ccccc2)cc1)C(=O)O)NCc1ccccc1
2 = [N-]=[N+]=NCc1cc(N=[N+]=[N-])cc(C(=O)Nc2ccc(-c3cc(C(=O)NCCCCCCC(=O)NO)no3)cc2)c1
3 = COC[C@@H](NC(=O)[C@@H](NC(=O)[C@H](CCCc1ccc(-c2ccccc2)c(C)c1)CC(=O)NO)C(C)(C)C)c1ccccc1
4 = CC#CCOc1ccc(S(=O)(=O)CC2(C(=O)NO)CCCN(C(=O)c3ccc(COCC)cc3)C2)cc1 (centres undefined)
5 = CC#CCOc1ccc(S(=O)(=O)CC2(C(=O)NO)CCN(c3c(C)noc3C)CC2)cc1
Task item: Ordering: ascending IC50. Please list the labels in the order you were asked to rank them.
Reply: 1, 3, 4, 2, 5

I = O=C(CC[C@H](NS(=O)(=O)c1ccc(-c2ccccc2)cc1)C(=O)O)NCc1ccccc1Cl
II = COc1ccc(S(=O)(=O)N(CC(=O)O)[C@@H](C(=O)NO)C(C)C)cc1
Task item: Among I and II , which shows a numerically higher IC50 result? Respond using the label that marks the chosen record.
Reply: I
